Tested on: mir-21 pri-miRNA
Test: mir-21 pri-miRNA expression in HeLa cells (real-time RT-PCR)
Assay type: cell-based, human
Conditions: HeLa cells, 100 nM, real-time RT-PCR
In the oligonucleotide strings, read from the 5' end, every base follows the letter of its sugar. An asterisk marks phosphorothioate; unmarked linkages are phosphodiester. Other units and linkages are bracketed, terminal groups are in braces. A string of capitals states the bases alone. e = 2'-O-(2-methoxyethyl) (MOE); [5mC] = 5-methylcytosine
MEASURED_ATTRIBUTE: mir-21 pri-miRNA expression % UTC (% UTC)
Give bare numbers, in % UTC.

In the examples that follow, each entry is paired with its recorded mir-21 pri-miRNA expression % UTC.
INSERT INTO results (substance, measured_attribute, val) VALUES
  ('358782 (antisense eA*eA*e[5mC]*eA*eA*eT*eG*eA*eT*eG*e[5mC]*eT*eG*eG*eG*eT*eA*eA*eT*eG) [compound 358782]', 'mir-21 pri-miRNA expression % UTC', 155),
  ('358780 (antisense eA*eA*e[5mC]*eA*eT*eT*eG*eG*eA*eT*eA*eT*eG*eG*eA*eT*eG*eG*eT*e[5mC]) [compound 358780]', 'mir-21 pri-miRNA expression % UTC', 269);

Kindly review the next substance as well.
Please give the measured mir-21 pri-miRNA expression % UTC for this substance: 358773 (e[5mC]*eT*eG*eG*eT*eG*eT*eT*eG*e[5mC]*e[5mC]*eA*eT*eG*eA*eG*eA*eT*eT*e[5mC]; antisense) [compound 358773]
148

---

Tested on: Glut4
Test: Glut4 mRNA expression in adipocytes (real-time PCR)
Assay type: cell-based, human
Conditions: differentiating adipocytes transfected with oligomeric compound; Table 75
Protocol: Expression of the four hallmark genes, HSL, aP2, Glut4, and PPARγ, is also measured in adipocytes transfected with oligomeric compounds of the invention. Cells are lysed on day nine post-transfection and total RNA is harvested. The amount of total RNA in each sample is determined using a Ribogreen Assay (Invitrogen Life Technologies, Carlsbad, Calif.). […]
In the oligonucleotide strings, read from the 5' end, every base follows the letter of its sugar. An asterisk marks phosphorothioate; unmarked linkages are phosphodiester. Other units and linkages are bracketed, terminal groups are in braces. A string of capitals states the bases alone. e = 2'-O-(2-methoxyethyl) (MOE); [5mC] = 5-methylcytosine
MEASURED_ATTRIBUTE: GLUT4 mRNA

INSERT INTO results (substance, measured_attribute, val) VALUES
  ('328103 (antisense e[5mC]*e[5mC]*e[5mC]*eA*eA*eT*eA*eT*e[5mC]*eA*eA*eA*e[5mC]*eA*eT*eA*eT*e[5mC]*eA) [compound 328103]', 'GLUT4 mRNA', '86 percentage of untreated control (UTC)'),
  ('328098 (antisense eG*eA*eG*eA*eA*eT*e[5mC]*eA*eA*eT*eA*eG*eG*eG*e[5mC]*eA*eT*eG*e[5mC]*eA*eA) [compound 328098]', 'GLUT4 mRNA', '25 percentage of untreated control (UTC)'),
  ('346913 (AGAAAGGCAGCAGGUCGUAUAG; all 2''-MOE, all phosphorothioate, methylation of C and T or U not given here) [compound 346913]', 'GLUT4 mRNA', '40 percentage of untreated control (UTC)');

For each entry beneath this line, provide reported GLUT4 mRNA.
1. 346919 (CUACCUGCACGAACAGCACUUUG; all 2'-MOE, all phosphorothioate, methylation of C and T or U not given here) [compound 346919]
2. 327899 (antisense e[5mC]*eA*eG*eT*eG*eA*eA*eT*eT*e[5mC]*eT*eA*e[5mC]*e[5mC]*eA*eG*eT*eG*e[5mC]*e[5mC]*eA*eT*eA) [compound 327899]

1. 50 percentage of untreated control (UTC)
2. 14 percentage of untreated control (UTC)

---

System: HSL
Assay: HSL mRNA expression in adipocytes (real-time PCR)
Assay type: cell-based, human
Conditions: Table 18; differentiating adipocytes; control = treatment with ISIS 342673
In the oligonucleotide strings, read from the 5' end, every base follows the letter of its sugar. An asterisk marks phosphorothioate; unmarked linkages are phosphodiester. Other units and linkages are bracketed, terminal groups are in braces. A string of capitals states the bases alone. e = 2'-O-(2-methoxyethyl) (MOE); [5mC] = 5-methylcytosine
MEASURED_ATTRIBUTE: HSL mRNA

INSERT INTO assay_data (substance, val) VALUES
  ('328111 (antisense eT*e[5mC]*e[5mC]*eG*eA*eG*eT*e[5mC]*eG*eG*eA*eG*eG*eA*eG*eG*eA*eG*eG*eA*eA) [compound 328111]', '69.5 percentage of control'),
  ('328101 (antisense eA*eA*eA*e[5mC]*e[5mC]*e[5mC]*e[5mC]*eT*eA*eT*e[5mC]*eA*e[5mC]*eG*eA*eT*eT*eA*eG*e[5mC]*eA) [compound 328101]', '91.8 percentage of control'),
  ('328102 (antisense eG*e[5mC]*e[5mC]*e[5mC]*e[5mC]*eA*eT*eT*eA*eA*eT*eA*eT*eT*eT*eT*eA*eA*e[5mC]*e[5mC]*eA) [compound 328102]', '97.0 percentage of control');

Need HSL mRNA for each of these substances.
1. 328112 (antisense eA*eT*e[5mC]*eA*eT*eT*eA*e[5mC]*eT*eG*eG*eA*eT*eT*eG*e[5mC]*eT*eG*eT*eA*eA) [compound 328112]
2. 328100 (antisense eA*eA*eT*e[5mC]*eT*e[5mC]*eT*eG*e[5mC]*eA*eG*eG*e[5mC]*eA*eA*eA*eT*eG*eT*eG*eA) [compound 328100]

["101.2 percentage of control", "72.0 percentage of control"]

---

Test system: IL-6 mRNA
Test: IL-6 mRNA in LPS-activated primary murine macrophages
Type: cell-based, mouse
Conditions: 150 nM, −IFN, average of 3 treatments
In the oligonucleotide strings, read from the 5' end, every base follows the letter of its sugar. An asterisk marks phosphorothioate; unmarked linkages are phosphodiester. Other units and linkages are bracketed, terminal groups are in braces. A string of capitals states the bases alone. e = 2'-O-(2-methoxyethyl) (MOE); [5mC] = 5-methylcytosine; d = 2'-deoxy (DNA)
MEASURED_ATTRIBUTE: IL-6 mRNA expression, % UTC

INSERT INTO assay_data (substance, val) VALUES
  ('229927 (antisense e[5mC]*e[5mC]*eA*e[5mC]*eA*dT*dT*dG*dA*dG*dT*dT*dT*d[5mC]*dT*eT*eT*eA*eA*eG) [compound 229927]', '52 % UTC'),
  ('327941 (antisense eA*eA*e[5mC]*e[5mC]*e[5mC]*eA*e[5mC]*e[5mC]*eG*eA*e[5mC]*eA*eG*e[5mC]*eA*eA*eT*eG*eA*eA*eT*eG*eT*eT) [compound 327941]', '325 % UTC'),
  ('289606 (antisense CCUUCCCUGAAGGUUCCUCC; all 2''-MOE, all C 5-methyl, all phosphorothioate, T or U not given here) [compound 289606]', '68 % UTC'),
  ('342683 (antisense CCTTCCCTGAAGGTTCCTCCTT; scrambled control, further chemistry not given here) [compound 342683]', '161 % UTC'),
  ('327921 (antisense e[5mC]*eT*eT*e[5mC]*e[5mC]*eA*eG*eT*e[5mC]*eG*eG*eG*eG*eA*eT*eG*eT*eT*eT*eA*e[5mC]*eA) [compound 327921]', '294 % UTC');

I'd like to know its IL-6 mRNA expression, % UTC. The substance in question is 129690 (antisense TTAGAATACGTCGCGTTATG; sugars from the 5' end e5 d10 e5, all phosphorothioate, methylation of C not given here) [compound 129690]
99 % UTC

---

Could you please report measured % cells in cell cycle phase: G1 for the items listed next?
Test system: A549 cells
Assay: Cell cycle assay in A549 cells
Assay type: cell-based, human
Details: A549 cells, 25 nM, 24 hours; relative to the untreated control cells in that phase
Answers are plain numbers, in %.

INSERT INTO measurements (substance, readout_unit, val) VALUES
  ('340350 (antisense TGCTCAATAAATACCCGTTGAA; all 2''-MOE, all phosphorothioate, methylation of C not given here) [compound 340350]', '%', 102),
  ('338769 (antisense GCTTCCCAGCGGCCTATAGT; all 2''-MOE, all phosphorothioate, methylation of C not given here) [compound 338769]', '%', 101),
  ('338637 (antisense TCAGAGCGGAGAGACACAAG; all 2''-MOE, all phosphorothioate, methylation of C not given here) [compound 338637]', '%', 100);

For the next question, use this substance.
Record request: % cells in cell cycle phase: G1 value, item 338836 (antisense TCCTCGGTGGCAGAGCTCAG; all 2'-MOE, all phosphorothioate, methylation of C not given here) [compound 338836]
97
